target: Neurogenic locus notch homolog protein 3 (Homo sapiens) (UniProt Q9UM47); experiment: NOTCH3 binders on small-molecule microarray, primary screen, biochemical, 635/667 nm fluorescence (AID 1096); conditions: NOTCH3 binding, 635 nm fluorescence, higher = more signal
Sequence (Q9UM47 whole entry, looked up): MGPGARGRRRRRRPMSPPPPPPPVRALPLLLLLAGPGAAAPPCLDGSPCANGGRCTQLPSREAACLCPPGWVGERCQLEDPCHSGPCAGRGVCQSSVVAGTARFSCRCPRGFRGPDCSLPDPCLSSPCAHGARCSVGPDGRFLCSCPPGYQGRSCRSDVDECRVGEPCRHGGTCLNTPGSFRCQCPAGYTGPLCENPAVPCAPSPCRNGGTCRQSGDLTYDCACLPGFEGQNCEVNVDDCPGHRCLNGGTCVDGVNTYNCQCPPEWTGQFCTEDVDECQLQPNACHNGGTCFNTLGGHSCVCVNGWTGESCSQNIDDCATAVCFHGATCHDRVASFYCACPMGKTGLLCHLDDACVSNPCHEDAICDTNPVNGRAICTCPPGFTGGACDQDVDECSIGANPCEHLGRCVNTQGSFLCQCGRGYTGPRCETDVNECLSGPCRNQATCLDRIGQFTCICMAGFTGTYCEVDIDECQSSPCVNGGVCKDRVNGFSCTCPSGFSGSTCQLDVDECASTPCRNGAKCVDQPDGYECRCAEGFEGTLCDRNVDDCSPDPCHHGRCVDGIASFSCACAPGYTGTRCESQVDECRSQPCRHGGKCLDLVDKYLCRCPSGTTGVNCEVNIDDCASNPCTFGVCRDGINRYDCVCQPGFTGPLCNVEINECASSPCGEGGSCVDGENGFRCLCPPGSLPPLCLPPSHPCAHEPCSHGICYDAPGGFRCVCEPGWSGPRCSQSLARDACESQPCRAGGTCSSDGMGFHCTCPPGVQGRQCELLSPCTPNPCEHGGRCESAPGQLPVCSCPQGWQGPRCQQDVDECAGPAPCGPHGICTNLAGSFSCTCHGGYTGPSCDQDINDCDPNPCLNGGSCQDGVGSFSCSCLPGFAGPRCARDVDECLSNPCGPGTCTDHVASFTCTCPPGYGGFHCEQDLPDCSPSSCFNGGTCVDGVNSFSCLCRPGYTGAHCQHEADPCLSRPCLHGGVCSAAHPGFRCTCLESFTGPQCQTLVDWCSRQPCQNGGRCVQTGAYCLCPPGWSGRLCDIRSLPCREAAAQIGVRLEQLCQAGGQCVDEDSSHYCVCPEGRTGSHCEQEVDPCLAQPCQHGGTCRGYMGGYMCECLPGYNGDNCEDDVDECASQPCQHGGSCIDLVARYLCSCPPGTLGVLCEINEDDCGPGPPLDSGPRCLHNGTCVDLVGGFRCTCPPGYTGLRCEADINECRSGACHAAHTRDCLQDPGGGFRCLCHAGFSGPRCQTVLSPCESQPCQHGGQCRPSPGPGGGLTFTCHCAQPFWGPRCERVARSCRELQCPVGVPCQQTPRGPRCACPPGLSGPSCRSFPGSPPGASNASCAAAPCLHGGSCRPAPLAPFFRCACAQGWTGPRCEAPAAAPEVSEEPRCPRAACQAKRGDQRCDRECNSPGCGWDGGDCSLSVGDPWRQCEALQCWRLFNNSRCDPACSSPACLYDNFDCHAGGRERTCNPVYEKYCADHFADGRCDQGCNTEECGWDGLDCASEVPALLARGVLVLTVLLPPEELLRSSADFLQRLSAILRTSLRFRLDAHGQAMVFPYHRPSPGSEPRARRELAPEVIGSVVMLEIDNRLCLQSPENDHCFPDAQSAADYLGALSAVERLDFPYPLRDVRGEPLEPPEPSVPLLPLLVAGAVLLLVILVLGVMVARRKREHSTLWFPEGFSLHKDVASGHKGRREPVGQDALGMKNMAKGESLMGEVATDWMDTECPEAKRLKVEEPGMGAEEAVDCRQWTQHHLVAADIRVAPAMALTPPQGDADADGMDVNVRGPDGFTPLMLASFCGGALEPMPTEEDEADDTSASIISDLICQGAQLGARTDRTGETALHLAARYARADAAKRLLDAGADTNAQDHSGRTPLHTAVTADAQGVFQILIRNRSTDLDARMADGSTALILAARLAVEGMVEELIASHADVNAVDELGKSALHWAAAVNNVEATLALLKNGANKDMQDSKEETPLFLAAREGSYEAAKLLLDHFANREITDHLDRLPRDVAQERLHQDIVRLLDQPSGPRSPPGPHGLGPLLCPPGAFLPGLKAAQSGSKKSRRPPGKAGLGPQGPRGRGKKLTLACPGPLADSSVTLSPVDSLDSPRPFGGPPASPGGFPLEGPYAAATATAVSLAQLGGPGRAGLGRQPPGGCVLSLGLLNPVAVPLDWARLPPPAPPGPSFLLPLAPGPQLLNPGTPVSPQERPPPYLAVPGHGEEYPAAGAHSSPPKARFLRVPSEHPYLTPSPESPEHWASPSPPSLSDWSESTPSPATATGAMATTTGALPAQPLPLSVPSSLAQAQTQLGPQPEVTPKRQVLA
Each entry gets condition not met if its composite z-score stays under 0.5, and condition met if its composite z-score is 0.5 or above.

Some solved cases for reference:
molecule	target.system	class
COc1cc2c(cc1OC)CN(C(=O)[C@H]1[C@@H]3C(=O)O[C@@H](c4ccccc4)[C@@H](c4ccccc4)N3[C@@H](c3ccc(O)cc3)[C@]13C(=O)Nc1ccc(C#CC4=CCCCC4)cc13)CC2	Neurogenic locus notch homolog protein 3 (Homo sapiens) (UniProt Q9UM47)	condition met
COCCCNC(=O)[C@@]1(Cc2ccccc2)N=C(c2ccc(OCCCO)cc2)O[C@H]1c1ccccc1	Neurogenic locus notch homolog protein 3 (Homo sapiens) (UniProt Q9UM47)	condition met
CCOC(=O)C1=CCC(c2ccccc2)N(S(=O)(=O)CC[Si](C)(C)C)C1 (configuration not stated)	Neurogenic locus notch homolog protein 3 (Homo sapiens) (UniProt Q9UM47)	condition not met
COC(=O)[C@@]1(Cc2ccc(OC)cc2)[C@H]2c3cc(C(=O)N4CCCC4)n(Cc4ccc(OC)c(OC)c4)c3C[C@H]2CN1C(=O)c1ccccc1	Neurogenic locus notch homolog protein 3 (Homo sapiens) (UniProt Q9UM47)	condition met
COC(=O)C(CC#Cc1ccc2c(c1)[C@]1(C(=O)N2)[C@H](c2ccc(O)cc2)N2[C@H](c3ccccc3)[C@H](c3ccccc3)OC(=O)[C@H]2[C@@H]1C(=O)Nc1nc2ccccc2s1)C(=O)OC	Neurogenic locus notch homolog protein 3 (Homo sapiens) (UniProt Q9UM47)	condition met

Query: Does the molecule "C[N+](C)(C)CCCC[C@@H]1NC(=O)[C@@H]2C[C@H](C(=O)NCCCCCN)[C@H](c3cccc(OCCO)c3)N2C1=O" have recorded composite z-score that is 0.5 or more?
Result: condition not met
